Sourced from ChEMBL document CHEMBL4304799

- System: Plasmodium falciparum
- Measurement protocol: Antiplasmodial activity against asexual chloroquine resistant blood stage Plasmodium falciparum Dd2 measured as HRP2 levels after 3 days by ELISA
- Assay type: functional, organism-based
- Measurement conditions: Dd2, 72 h
Result type: IC50

• COc1cc(NC(C)CCCNC(=O)/C=C/C(=O)NCCCC(C)Nc2cc(OC)cc3cccnc23)c2ncccc2c1 (stereo unspecified) = > 27.7 µM
• COc1cc(NC(C)CCCNC(=O)CCC(=O)NCCCC(C)Nc2cc(OC)cc3cccnc23)c2ncccc2c1 (stereo unspecified) = > 27.7 µM

IC50 in this record for COc1cc(NC(C)CCCNC(=O)CCCC(=O)NCCCC(C)Nc2cc(OC)cc3cccnc23)c2ncccc2c1 (stereo unspecified) : > 27.7 µM

###

- Test system: Plasmodium falciparum
- Measurement protocol: Antiplasmodial activity against asexual chloroquine resistant blood stage Plasmodium falciparum Dd2 measured as HRP2 levels after 3 days by ELISA
- Assay type: functional, organism-based
- Measurement conditions: Dd2, 72 h
Each entry below lists one item and its recorded pIC50 value.
In simple prose, pIC50 is minus the logarithm base ten of a concentration in moles per litre.

- COc1cc(NC(C)CCCN)c2ncccc2c1 (stereo not drawn) [PRIMAQUINE PHOSPHATE]: 5.72

Here is the next item to consider.
Record COc1cc(NC(C)CCCNC(=O)CCCCCCC(=O)NCCCC(C)Nc2cc(OC)cc3cccnc23)c2ncccc2c1 (stereo not drawn) / Plasmodium falciparum, pIC50 recorded as 4.90
